TARGET_OF_ASSAY: T1, human CD154, soluble antigen (human, UniProt P29965 116-261, limits assumed)
T1 construct: KinExA uses 'soluble antigen'; also called CD40 ligand; CD40L
T1 sequence (looked up): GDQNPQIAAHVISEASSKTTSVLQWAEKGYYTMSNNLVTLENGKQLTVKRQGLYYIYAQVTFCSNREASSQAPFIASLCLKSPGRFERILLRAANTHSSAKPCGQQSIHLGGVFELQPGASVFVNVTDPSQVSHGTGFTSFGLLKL
PROCEDURE_TEXT: ELISA-based competitive binding assay; unlabeled Fab against biotin-labeled 5c8 Fab competitor
ATTRIBUTE_MEASURED: ELISA fold-improvement over wildtype (fold)
Note: unit fold is implicit; provide only the numeric part.

5c8 Fab Mutant #2 (heavy chain Y33W) (Fab, V domains shown) VH: QVQLVQSGAEVVKPGASVKLSCKASGYIFTSYWMYWVKQAPGQGLEWIGEINPSNGDTNFNEKFKSKATLTVDKSASTAYMELSSLRSEDTAVYYCTRSDGRNDMDSWGQGTLVTVSS VL: DIVLTQSPATLSVSPGERATISCRASQRVSSSTYSYMHWYQQKPGQPPKLLIKYASNLESGVPARFSGSGSGTDFTLTISSVEPEDFATYYCQHSWEIPPTFGGGTKLEIK    7
5c8 Fab Mutant #25 (heavy T30H/Y33W; light S26D/Q27E/T33W) (Fab, V domains shown) VH: QVQLVQSGAEVVKPGASVKLSCKASGYIFHSYWMYWVKQAPGQGLEWIGEINPSNGDTNFNEKFKSKATLTVDKSASTAYMELSSLRSEDTAVYYCTRSDGRNDMDSWGQGTLVTVSS VL: DIVLTQSPATLSVSPGERATISCRADERVSSSWYSYMHWYQQKPGQPPKLLIKYASNLESGVPARFSGSGSGTDFTLTISSVEPEDFATYYCQHSWEIPPTFGGGTKLEIK    5.6
5c8 Fab Mutant #14 (light chain S26D/Q27E) (Fab, V domains shown, also called double mutant) VH: QVQLVQSGAEVVKPGASVKLSCKASGYIFTSYYMYWVKQAPGQGLEWIGEINPSNGDTNFNEKFKSKATLTVDKSASTAYMELSSLRSEDTAVYYCTRSDGRNDMDSWGQGTLVTVSS VL: DIVLTQSPATLSVSPGERATISCRADERVSSSTYSYMHWYQQKPGQPPKLLIKYASNLESGVPARFSGSGSGTDFTLTISSVEPEDFATYYCQHSWEIPPTFGGGTKLEIK    5.6
5c8 Fab Mutant #17 (heavy Y33W; light S26D/Q27E/T33W) (Fab, V domains shown) VH: QVQLVQSGAEVVKPGASVKLSCKASGYIFTSYWMYWVKQAPGQGLEWIGEINPSNGDTNFNEKFKSKATLTVDKSASTAYMELSSLRSEDTAVYYCTRSDGRNDMDSWGQGTLVTVSS VL: DIVLTQSPATLSVSPGERATISCRADERVSSSWYSYMHWYQQKPGQPPKLLIKYASNLESGVPARFSGSGSGTDFTLTISSVEPEDFATYYCQHSWEIPPTFGGGTKLEIK    5.9
5c8 Fab Mutant #13 (heavy chain N59L) (Fab, V domains shown, also called Asn59Leu) VH: QVQLVQSGAEVVKPGASVKLSCKASGYIFTSYYMYWVKQAPGQGLEWIGEINPSNGDTLFNEKFKSKATLTVDKSASTAYMELSSLRSEDTAVYYCTRSDGRNDMDSWGQGTLVTVSS VL: DIVLTQSPATLSVSPGERATISCRASQRVSSSTYSYMHWYQQKPGQPPKLLIKYASNLESGVPARFSGSGSGTDFTLTISSVEPEDFATYYCQHSWEIPPTFGGGTKLEIK    0.01
5c8 Fab Mutant #5 (light chain T33W) (Fab, V domains shown) VH: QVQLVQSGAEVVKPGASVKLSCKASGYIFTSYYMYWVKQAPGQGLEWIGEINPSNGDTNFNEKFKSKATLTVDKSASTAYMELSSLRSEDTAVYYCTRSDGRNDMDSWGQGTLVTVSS VL: DIVLTQSPATLSVSPGERATISCRASQRVSSSWYSYMHWYQQKPGQPPKLLIKYASNLESGVPARFSGSGSGTDFTLTISSVEPEDFATYYCQHSWEIPPTFGGGTKLEIK    5

Query string: Name the recorded ELISA fold-improvement over wildtype for 5c8 Fab Mutant #9 (light chain T33D) (Fab, V domains shown) VH: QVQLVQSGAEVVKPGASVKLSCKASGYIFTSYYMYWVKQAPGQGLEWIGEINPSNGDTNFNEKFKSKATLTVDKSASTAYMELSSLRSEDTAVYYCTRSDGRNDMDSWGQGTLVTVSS VL: DIVLTQSPATLSVSPGERATISCRASQRVSSSDYSYMHWYQQKPGQPPKLLIKYASNLESGVPARFSGSGSGTDFTLTISSVEPEDFATYYCQHSWEIPPTFGGGTKLEIK .
Result string: 0.22

Query string: Same for 5c8 Fab Mutant #4 (heavy chain S54N) (Fab, V domains shown) VH: QVQLVQSGAEVVKPGASVKLSCKASGYIFTSYYMYWVKQAPGQGLEWIGEINPNNGDTNFNEKFKSKATLTVDKSASTAYMELSSLRSEDTAVYYCTRSDGRNDMDSWGQGTLVTVSS VL: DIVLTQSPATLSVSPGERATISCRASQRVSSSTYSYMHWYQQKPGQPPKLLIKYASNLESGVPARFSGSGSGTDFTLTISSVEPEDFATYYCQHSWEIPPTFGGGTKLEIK
Result string: 2

Query string: Note, next up: 5c8 Fab Mutant #16 (heavy T30H; light S26D/Q27E) (Fab, V domains shown) VH: QVQLVQSGAEVVKPGASVKLSCKASGYIFHSYYMYWVKQAPGQGLEWIGEINPSNGDTNFNEKFKSKATLTVDKSASTAYMELSSLRSEDTAVYYCTRSDGRNDMDSWGQGTLVTVSS VL: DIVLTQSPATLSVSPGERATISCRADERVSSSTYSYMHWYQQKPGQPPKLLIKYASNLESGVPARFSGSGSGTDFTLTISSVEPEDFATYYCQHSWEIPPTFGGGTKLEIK
Result string: 5.8

Query string: Also 5c8 Fab Mutant #10 (light chain Y54E) (Fab, V domains shown, also called Tyr54Glu) VH: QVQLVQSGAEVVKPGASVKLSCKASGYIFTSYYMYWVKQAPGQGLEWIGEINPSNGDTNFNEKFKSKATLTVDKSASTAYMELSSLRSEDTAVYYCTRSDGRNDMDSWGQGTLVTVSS VL: DIVLTQSPATLSVSPGERATISCRASQRVSSSTYSYMHWYQQKPGQPPKLLIKEASNLESGVPARFSGSGSGTDFTLTISSVEPEDFATYYCQHSWEIPPTFGGGTKLEIK ?
Result string: 0.06
